biological target: UniProt Q00536; test: KiNativ in situ kinase profiling in MV4:11 cell lysates
property: IC50

In: IC50 for COc1cc2ncc(-c3cccc(NC4CCNC4)n3)n2cc1-c1cnn(C)c1 (stereo not shown) ?
Out: < 250 nM

---

target: PCTAIRE2 (Homo sapiens (Human)); test: KiNativ in situ kinase profiling in MV4:11 cell lysates
pIC50: −log10 of the molar value.
property: pIC50

In: pIC50 for COc1cc2ncc(-c3cccc(NC4CCNC4)n3)n2cc1-c1cnn(C)c1 (stereo not shown) ?
Out: > 6.60

---

target: HGK (Homo sapiens (Human)); assay: KiNativ in situ kinase profiling in MV4:11 cell lysates
property: IC50

In: IC50 for COc1cc2ncc(-c3cccc(NC4CCNC4)n3)n2cc1-c1cnn(C)c1 (stereo not shown) [Compound I-24] ?
Out: < 0.25 µM

---

assay: Rat microsomal stability (RLM); type: in vitro ADME; details: Table 10
In this section we review reported Stability values for a set of compounds.

c1cc(NC2CNC2)nc(-c2cnc3ccccn23)c1
>30.0 min

// switching to the query compound
In: Stability for COc1cc2ncc(-c3cccc(NC4CCNC4)n3)n2cc1-c1cc[nH]c1 (stereo not drawn) ?
Out: >30.0 min

---

In this section we review reported Stability values for a set of compounds.
assay: Rat microsomal stability (RLM); format: in vitro ADME; details: Table 10

COc1cc2ncc(-c3cccc(NC4CCNC4)n3)n2cc1-c1ccncc1 (stereo not drawn)
>30.0 min
COc1cc2ncc(-c3cccc(NC4CCNC4)n3)n2cc1Cl (stereo not drawn)
27 min
COc1cc2ncc(-c3cccc(NC4CCNC4)n3)n2cc1C#N (stereo not drawn)
8.8 min
N#CCC(=O)N1CC(Nc2cccc(-c3cnc4ccc(Cl)cn34)n2)C1
>30.0 min
Cc1ccn2c(-c3cccc(NC4CNC4)n3)cnc2c1
>30.0 min

In: Stability for Clc1ccc2ncc(-c3cc(Br)cc(NC4CNC4)n3)n2c1 ?
Out: >30.0 min

In: Stability for Fc1cc(F)c(-c2cnc3ccc(Cl)cn23)nc1NC1CNC1 ?
Out: >30.0 min

In: Stability for COc1cc(NC2CNC2)nc(-c2cnc3ccc(Cl)cn23)c1 ?
Out: >30.0 min

---

Molecular target: TNIK (Homo sapiens (Human))
Experiment: KiNativ in situ kinase profiling in MV4:11 cell lysates
Description: FIG. 18A depicts the labeling site key. FIG. 18B depicts estimated IC50 values. FIG. 18C depicts the full IC50 list for the various kinases. This is an in situ kinase profiling assay; details and methodology are available at www kinativ com. The assay was performed in lysates of MV-4-11 cells which were pretreated for 15 minutes with the inhibitor before the ATP probe was added. The KiNativ® assay is an in situ kinase profiling assay; details and methodology are available at www kinativ com. […]
pIC50: −log10 of the molar value.
property: pIC50

In: pIC50 for COc1cc2ncc(-c3cccc(NC4CCNC4)n3)n2cc1-c1cnn(C)c1 (stereo not shown) [Compound I-24] ?
Out: > 6.60

---

molecular target: IRAK1 (Homo sapiens (Human), UniProt P51617); experiment: KiNativ in situ kinase profiling in MV4:11 cell lysates; format: biochemical
pIC50: −log10 of the molar value.
property: pIC50

In: pIC50 for COc1cc2ncc(-c3cccc(NC4CCNC4)n3)n2cc1-c1cnn(C)c1 (stereo not shown) ?
Out: > 6.60

All figures here come from patent US11542261B2.
